Recorded values, source PubChem BioAssay (NCI).

- Experiment summary: NCI Yeast Anticancer Drug Screen. Data for the rad50 strain (AID 155)
- Conditions used: S. cerevisiae rad50 strain growth inhibition; at 50.0 µM
The panel holds about 79,000 compounds, 15% with a hit somewhere; the sample as a whole holds those more often. Calls of active or inactive are those of the source. Cut-off read from the data, not from the text of the source: active = growth inhibition above about 70%; inactive = the rest.
Outcomes: active, inactive

Molecule	Qualitative label
CCOC(=O)COC(=O)CCc1ccccc1	inactive
O=C(Nc1ccc(Nc2ccc(NC(=O)c3ccccc3)c3c2C(=O)c2ccccc2C3=O)c2c1C(=O)c1ccccc1C2=O)c1ccccc1	inactive
C#CC(C)(C)OCC(O)CCl (stereo not drawn)	inactive
CC(C#N)NC(=O)NC(C)C(N)=O (stereo not drawn)	inactive
Cn1c2c(c3ccccc31)=NN1CCN=C1N=2	inactive
Cc1ccc(NC(=O)CCC(=O)O)cc1Cl	inactive
COc1ccc(N=Nc2c(C)c(C#N)c(=S)n(C3OC(COC(C)=O)C(OC(C)=O)C(OC(C)=O)C3OC(C)=O)c2-c2ccccc2)cc1 (stereo not drawn)	inactive
CN(C)CCCN1N=Nc2cccc3cccc1c23	inactive
O=C1c2ccccc2-c2oc(=O)c3ccccc3c21	inactive
O=C1C=CC(=O)C2CC=CCC12 (stereo not drawn)	inactive
CCOC(Nc1ccc(Cl)cc1Cl)C(=O)c1ccccc1 (stereo not drawn)	inactive
OCC(CO)=C1c2ccccc2-c2ccccc21	inactive
CCOC(=O)C(Cc1ccccc1)NC(=O)c1[nH]cnc1/N=N/N(C)C (stereo not drawn)	inactive
CC(C)(O)CCC(C)(C)O	inactive
Cc1ccc(NC(=O)c2ccc(C)c(N)c2)c(C)c1	inactive
COC(=O)C(C(=O)c1ccccc1)C(C(=O)C(=O)Nc1ccc(OC)cc1OC)C(=O)C(=O)c1ccc(C)cc1 (stereo not drawn)	inactive
C=CCNC(=S)/N=C/C(C(=O)Nc1ccccc1)=C(/C)O	inactive
Clc1c(Cl)c(Cl)c(CSCc2c(Cl)c(Cl)c(Cl)c(Cl)c2Cl)c(Cl)c1Cl	inactive
COc1ccc(NC(=O)COc2cc(Cl)c(Cl)cc2Cl)cc1	inactive
CCCCCCCOC(=O)c1ccccc1Cl	inactive
CC(/C=N/Nc1ccccc1)=N\N=c1/scc(-c2ccc(Cl)cc2)n1-c1ccc(Cl)cc1	inactive
C#Cc1nc(N)c2ncn(C3OC(COS(N)(=O)=O)C(O)C3O)c2n1 (stereo not drawn)	inactive
COCOc1ccc(-c2ccc(O)cc2)cc1	inactive
COC(=O)CC1C(OC)OC23CCC1C2(C)CCC1C3CCC2CC(OC(C)=O)CCC21C (stereo not drawn)	inactive
CC(C)N(C(C)C)C1C=CC(N(C(C)C)C(C)C)CC1 (stereo not drawn)	inactive
S=C(NCc1cccc2ccccc12)Nc1ccccc1	inactive
O=S(=O)(O)c1ccc(-c2nc3ccccc3[nH]2)cc1	inactive
N#C/C=C/c1cccc(Cl)c1	inactive
N#CCCN(CCC#N)c1ccc(C=O)cc1	inactive
O/N=C(/Cc1ccccc1)CC(O)(C(F)(F)F)C(F)(F)F	active
C/C(=C\c1ccc(OCCN2CCOCC2)cc1)c1ccc2c(c1)C(C)(C)CCC2(C)C	inactive
CCCC(CCc1ccccc1)C(N)=O (stereo not drawn)	inactive
C(=C/c1ccc(/C=C/C=C\c2ccccc2)cc1)/C=C/c1ccccc1	inactive
COC1C(/C=C/C(C)=O)OC2OC(C)(C)OC21 (stereo not drawn)	inactive
O=C(NC(CSC(=O)OCc1ccccc1)C(=O)Oc1ccc([N+](=O)[O-])cc1)OCc1ccccc1 (stereo not drawn)	inactive
CC(C)CSc1nc2ccc(N=Cc3ccccc3O)cc2s1	inactive
Cc1cccc(N=Cc2ccc(Cl)cc2Cl)c1C	inactive
CC1(C)OC2CC(=O)OCC23C1CC(=O)C1(C)C3CCC2(C)C(c3ccoc3)OC(=O)C3OC321 (stereo not drawn)	inactive
NCCCc1ccc2c(c1)OCO2	inactive
CN1CCN(c2ccncc2S(=O)(=O)N2CCN(C)CC2)CC1	inactive
CCCCC(O)(CCCC)CC(C)(C)C	inactive
CCc1nnc(CC)n1N	inactive
Cc1n(C)c(C(O)c2ccccc2)c(Br)[n+]1C (stereo not drawn)	inactive
OC(c1ccccc1)C1(O)CCCCC1 (stereo not drawn)	inactive
CSC1=C(C#N)C(=O)N(c2ccc(C)cc2)C(=O)C1C#N (stereo not drawn)	inactive
Cc1cc(=O)[nH]c(NN2C(Cl)C(=O)C2c2ccc([N+](=O)[O-])cc2)n1 (stereo not drawn)	inactive
Nc1nc(SCC(=O)c2ccc(F)cc2)sc1C(=O)c1ccc(F)cc1	inactive
CCCCN1C(=O)CC2[C@@H]3CCc4cc(OC)ccc4C3CC[C@]2(C)C1=O (stereo partly drawn)	inactive
